B1: GLTSCR2 (parent)
chain: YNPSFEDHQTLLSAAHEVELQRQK

Variants of: B1
Test: protein stability index of a GFP-peptide fusion (GPS, HEK-293T) (PSI 1-6); higher = more stable;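 further: lentivirally expressed fusions sorted by FACS into six bins by GFP to DsRed ratio, PSI derived from sequencing read proportions per bin multiplied by bin number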
Settings: c terminus: a fixed tail appended
Listing: protein stability index of selected variants
Reply with the value as a number alone.

Solved entries (count: 8):
YNPSFEDHQTLLSAAHEVELQRQA [K24A]    3.39
YNPSFEDHQTLLSAPHEVELQRQK [A15P]    3.61
YNPSFEDHQTMLSAAHEVELQRQK [L11M]    4.19
YNPSFEDHQTLLSAAHEVELQRVK [Q23V]    3.57
YNPSFEDHQTLLSAAHEVELQHQK [R22H]    3.99
YNPSFENHQTLLSAAHEVELQRQK [D7N]    3.98
YFPSFEDHQTLLSAAHEVELQRQK [N2F]    3.81
YNNSFEDHQTLLSAAHEVELQRQK [P3N]    4.45

Prompt: Which protein stability index value is on record for YNPSFEDHQTLLSAAHEVCLQRQK [E19C] ?
Completion: 3.33

Prompt: Could you share which protein stability index value was measured for YNWSFEDHQTLLSAAHEVELQRQK [P3W] ?
Completion: 1.9

Prompt: Dear colleague, I am looking for the recorded protein stability index of the following variant: YNPSFEDHQTLLSAAHYVELQRQK [E17Y]
Completion: 2.51

Prompt: If you can, please state the reported protein stability index value of ANPSFEDHQTLLSAAHEVELQRQK [Y1A] .
Completion: 4.93

Prompt: Give its protein stability index value. Item: YNPSHEDHQTLLSAAHEVELQRQK [F5H]
Completion: 4.09

Prompt: Quick one: protein stability index for YNPSFEDHQTLLSAAHEVEVQRQK [L20V] ?
Completion: 3.63

Prompt: Look up protein stability index for this variant: YNPSFEDHQTLLSAAHEVEGQRQK [L20G]
Completion: 4.16

Prompt: Can you share its protein stability index? I mean this variant: YNPSFKDHQTLLSAAHEVELQRQK [E6K]
Completion: 2.72
